target: human alpha-1c adrenergic receptor, allele 2 (LCR) (Homo sapiens, UniProt P35348); assay: biochemical; conditions: read-out: IC50 LCR; Table II; allele 2 (Cys at amino acid 347), COS-7, 125I-HEAT
Sequence (P35348 whole entry): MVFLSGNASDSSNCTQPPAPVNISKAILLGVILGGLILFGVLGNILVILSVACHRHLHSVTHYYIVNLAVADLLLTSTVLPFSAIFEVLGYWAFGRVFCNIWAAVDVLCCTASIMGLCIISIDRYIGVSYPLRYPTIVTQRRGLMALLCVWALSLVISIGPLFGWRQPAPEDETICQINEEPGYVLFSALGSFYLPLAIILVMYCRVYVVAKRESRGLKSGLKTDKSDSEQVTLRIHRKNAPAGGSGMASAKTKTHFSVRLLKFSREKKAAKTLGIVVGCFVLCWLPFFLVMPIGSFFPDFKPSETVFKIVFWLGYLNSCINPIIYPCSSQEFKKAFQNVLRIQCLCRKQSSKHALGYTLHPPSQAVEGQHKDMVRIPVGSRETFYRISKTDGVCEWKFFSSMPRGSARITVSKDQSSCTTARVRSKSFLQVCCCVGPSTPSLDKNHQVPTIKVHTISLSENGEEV
Outcome Measure: IC50 (nM)
Report the figure in nM without appending any unit label.

Observed IC50, human alpha-1c adrenergic receptor, allele 2 (LCR) (Homo sapiens, UniProt P35348), COc1cccc(OC)c1OCCNCC1COc2ccccc2O1 (stereo not shown) [WB4101] : 1

---

Attribute: pIC50
target: human alpha1A adrenergic receptor; test: Selective binding assay, competition with [125I]-HEAT on COS-7 membranes, α1A; conditions: Table I, 100 pM [125I]-HEAT
Remember, pIC50 is on a log scale: it is -log10 of the molar concentration.

The examples below pair each entry with its known result.
{"Molecule": "COc1cccc(OC)c1OCCNCC1CSc2ccccc2O1 (stereo not shown)", "pIC50": 8.60}
{"Molecule": "COc1ccccc1N1CCN(CCCNc2c(C)c(=O)n(C)c(=O)n2C)CC1", "pIC50": 7.38}
{"Molecule": "COc1cccc(OC)c1OCCNCC1COc2ccccc2O1 (stereo not shown)", "pIC50": 9.00}

Query CC(COc1ccccc1)N(CCCl)Cc1ccccc1 (stereo not shown) yields pIC50 of 8.21

Data provenance is patent US5760054A.
